assay: Oral bioavailability in mouse at 300 mg/kg, po measured after 2 hrs; assay type: ADME, organism-based; settings: in vivo, read-out: Drug uptake

MOLECULE	concentration at 2 h [ng/mL]
Cc1c(N2CC3=CCCN[C@H]3C2)c(F)cn2c(=O)c(C(=O)O)cc(C3CC3)c12	1640
COc1c(N2C[C@@H]3CCCN[C@@H]3C2)c(F)cc2c(=O)c(C(=O)O)cn(C3CC3)c12 [MOXIFLOXACIN]	9600

====

Here the recorded concentration at 0.5 h is given for each entry.
assay: Oral bioavailability in mouse at 300 mg/kg, po measured after 30 mins; format: ADME, organism-based; conditions: in vivo, read-out: Drug uptake

COMPOUND	UNIT OF MEASUREMENT	READOUT RELATION	concentration at 0.5 h
Cc1c(N2CC3=CCCN[C@H]3C2)c(F)cn2c(=O)c(C(=O)O)cc(C3CC3)c12	ng/mL	>	13100
COc1c(N2C[C@@H]3CCCN[C@@H]3C2)c(F)cc2c(=O)c(C(=O)O)cn(C3CC3)c12 [MOXIFLOXACIN]	ng/mL	=	19600

====

Listed here: items and their measured Activity.
system: Mycobacterium tuberculosis; test: Antimicrobial activity against Mycobacterium tuberculosis H37Rv at assessed as growth inhibition at […] following 24 days oxygen depletion by Wayne method relative to control; format: functional; design: scale not given: the % may be the effect or the level left

COMPOUND	UNIT OF MEASUREMENT	Activity
COc1c(N2CCNC(C)C2)c(F)cc2c(=O)c(C(=O)O)cn(C3CC3)c12 (stereo unspecified)	%	41
Cc1ncc([N+](=O)[O-])n1CCO	%	36
O=C(O)c1cn(C2CC2)c2cc(N3CCNCC3)c(F)cc2c1=O	%	83
CO[C@H]1/C=C/O[C@@]2(C)Oc3c(C)c(O)c4c(O)c(c(/C=N/N5CCN(C6CCCC6)CC5)c(O)c4c3C2=O)NC(=O)/C(C)=C\C=C\[C@H](C)[C@H](O)[C@@H](C)[C@@H](O)[C@@H](C)[C@H](OC(C)=O)[C@@H]1C	%	2.5
CN[C@@H]1[C@H](O[C@H]2[C@H](O[C@H]3[C@H](O)[C@@H](O)[C@H](N=C(N)N)[C@@H](O)[C@@H]3N=C(N)N)O[C@@H](C)[C@]2(O)C=O)O[C@@H](CO)[C@H](O)[C@H]1O	%	4.2
Cc1c(N2CC3=CCCN[C@H]3C2)c(F)cn2c(=O)c(C(=O)O)cc(C3CC3)c12	%	1.7

====

Activity values, listed per item
test system: Mycobacterium tuberculosis; assay: Antimicrobial activity against Mycobacterium tuberculosis H37Rv at assessed as growth inhibition at […] following 24 days oxygen depletion by Wayne method relative to control; assay type: functional; set-up: scale not given: the % may be the effect or the level left

STRUCTURE NOTATION	UNIT OF MEASUREMENT	Activity
CO[C@H]1/C=C/O[C@@]2(C)Oc3c(C)c(O)c4c(O)c(c(/C=N/N5CCN(C)CC5)c(O)c4c3C2=O)NC(=O)/C(C)=C\C=C\[C@H](C)[C@H](O)[C@@H](C)[C@@H](O)[C@@H](C)[C@H](OC(C)=O)[C@@H]1C	%	5.6
COc1c(N2C[C@@H]3CCCN[C@@H]3C2)c(F)cc2c(=O)c(C(=O)O)cn(C3CC3)c12	%	2.5
NNC(=O)c1ccncc1	%	70

Source of measurements: ChEMBL document CHEMBL1255311
